The reported numbers originate from patent US20100273203A1.

# target: CYP2C9*1 (Homo sapiens, UniProt P11712)
# run_parameters: S-warfarin metabolism; 7-hydroxywarfarin formation as marker
Reported Ki values are given for each entry in this list.
Your answer is read as µM, so omit the unit and give the number.

[[record]]
compound = "CC(=O)CC(c1ccccc1)c1c(O)c2cccc(O)c2oc1=O (stereo not shown) [8-OH-WAR, 8-hydroxywarfarin]"
assay_result = 21

[[record]]
compound = "CC(=O)CC(c1ccc(O)cc1)c1c(O)c2ccccc2oc1=O (stereo not shown) [4′-OH-WAR, 4′-hydroxywarfarin]"
assay_result = 17


Look up Ki: CC(=O)C(O)C(c1ccccc1)c1c(O)c2ccccc2oc1=O (stereo not shown) [10-OH-WAR, 10-hydroxywarfarin]
0.94
